target: human TLR7 (Homo sapiens); experiment: HEK293-Blue-hTLR-7 cells assay (SEAP reporter, R848 stimulation); conditions: HEK293-Blue-hTLR7 cells, R848, 20 hrs; read-out: HEK/hTLR7 IC50
Sequence (Q9NYK1 27-1049): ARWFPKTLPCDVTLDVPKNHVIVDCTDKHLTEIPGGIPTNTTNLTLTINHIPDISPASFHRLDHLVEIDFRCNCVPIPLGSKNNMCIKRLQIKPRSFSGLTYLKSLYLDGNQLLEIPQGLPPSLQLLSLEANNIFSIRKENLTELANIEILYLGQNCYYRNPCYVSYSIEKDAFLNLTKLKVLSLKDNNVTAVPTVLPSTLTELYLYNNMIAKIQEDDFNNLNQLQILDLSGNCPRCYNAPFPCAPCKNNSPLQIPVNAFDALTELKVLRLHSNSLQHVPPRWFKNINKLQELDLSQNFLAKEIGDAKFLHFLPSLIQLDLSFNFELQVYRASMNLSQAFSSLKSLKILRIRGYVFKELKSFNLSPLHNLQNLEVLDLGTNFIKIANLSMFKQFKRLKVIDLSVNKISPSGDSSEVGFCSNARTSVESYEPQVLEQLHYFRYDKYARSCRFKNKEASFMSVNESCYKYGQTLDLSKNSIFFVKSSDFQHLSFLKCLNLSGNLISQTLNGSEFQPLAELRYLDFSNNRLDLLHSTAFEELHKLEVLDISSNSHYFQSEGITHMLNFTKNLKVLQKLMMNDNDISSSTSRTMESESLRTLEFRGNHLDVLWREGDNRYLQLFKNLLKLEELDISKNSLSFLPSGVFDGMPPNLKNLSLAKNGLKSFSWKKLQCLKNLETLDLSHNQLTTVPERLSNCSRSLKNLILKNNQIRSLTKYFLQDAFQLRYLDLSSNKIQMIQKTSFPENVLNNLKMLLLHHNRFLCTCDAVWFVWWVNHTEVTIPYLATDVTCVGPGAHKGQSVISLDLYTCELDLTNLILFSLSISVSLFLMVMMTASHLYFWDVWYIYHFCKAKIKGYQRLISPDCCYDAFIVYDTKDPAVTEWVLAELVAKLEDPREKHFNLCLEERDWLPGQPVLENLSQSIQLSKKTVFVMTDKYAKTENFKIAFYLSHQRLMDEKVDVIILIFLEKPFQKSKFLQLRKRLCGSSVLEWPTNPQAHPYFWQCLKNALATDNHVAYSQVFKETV
Recorded Metric: IC50 (nM)

[I] C[C@@H]1CN(c2ccc(C#N)c3ncccc23)C[C@H](CN2CCN(c3ccc([C@@H]4CNCCO4)cc3)CC2)O1
[II] [2H]c1ccc2c(N3C[C@H](CN4CCN(c5ccc(N[C@H]6CNC[C@H]6F)nc5)CC4)O[C@H](C)C3)ccc(C#N)c2n1
[III] C[C@@H]1CN(c2ccc(C#N)c3ncccc23)C[C@H](CN2CCC(c3cccc(C4CCNCC4)c3)CC2)O1
[IV] COC1CN(c2ccc(C3CN(C[C@H]4CN(c5cc(=O)n(C)c6ncccc56)C[C@@H](C)O4)C3)cc2)C[C@H]1N (stereo in doubt)
[V] CO[C@@H]1CN(c2nc(C)cc(N3CCN(C[C@H]4CN(c5ccc(C#N)c6ncccc56)C[C@@H](C)O4)CC3)n2)C[C@H]1N (single isomer, unassigned) [Example 69B]
**Q:** // ascending sort on recorded IC50 In plain terms: list the labels in the order you were asked to.
**A:** V, II, I, IV, III

----------
target: human TLR8 (Homo sapiens, UniProt Q9NR97); assay: HEK293-Blue-hTLR-8 cells assay (SEAP reporter, R848 stimulation); conditions: HEK293-Blue-hTLR8 cells, R848, 20 hrs; read-out: HEK/hTLR8 IC50
pIC50: −log10 of the molar value.
Recorded Metric: pIC50

Compound	pIC50
C[C@@H]1CN(c2ccc(C#N)c3ncccc23)C[C@H](CN2CCN(c3ccnc(N4C[C@H]5NCCO[C@@H]5C4)n3)CC2)O1	9.00
C[C@@H]1CN(c2ccc(C#N)n3ncc(F)c23)C[C@H](CN2CC(c3ccc(N4CC(C)(N)C4)cc3)C2)O1	7.17
C[C@@H]1CN(c2ccc(C#N)c3nccnc23)C[C@H](CN2CCN(c3ccnc(N4CC[C@H](N)[C@H](F)C4)n3)CC2)O1	9.00
COC1CN(c2ccc(N3CCN(C[C@H]4CN(c5ccc(C#N)c6ncccc56)C[C@@H](C)O4)CC3)cn2)CC1N (stereo partly shown)	7.96
Cc1cc(N2CCN(C[C@H]3CN(c4ccc(C#N)c5ncccc45)C[C@@H](C)O3)CC2)nc(N2C[C@@H](N)[C@@H](F)C2)n1	8.52

[A] [2H]c1ccc2c(N3C[C@H](CN4CCN(c5ccc(N6C[C@@H]7C[C@H]6CN7)nc5)CC4)O[C@H](C)C3)ccc(C#N)c2n1
[B] CO[C@@H]1CN(c2cc(C)nc(N3CCN(C[C@H]4CN(c5ccc(C#N)c6nccnc56)C[C@@H](C)O4)CC3)n2)C[C@@H]1N
[C] [2H]c1ccc2c(N3C[C@H](CN4CC(c5cnc(N6CC(C)(N)C6)cc5C)C4)O[C@H](C)C3)ccc(C#N)c2n1
[D] C[C@@H]1CN(c2ccc(C#N)c3ncccc23)C[C@H](CN2CCN(c3ccnc(N4C[C@@H](F)[C@@H](N)C4)n3)CC2)O1
**Q:** Output the entries ranked by pIC50 from maximum down to minimum. In plain terms: list the labels in the order you were asked to.
**A:** B, D, C, A
(B: 9.00, D: 8.52, C: 7.85, A: 7.64)

[I] C[C@@H]1CN(c2ccc(C#N)c3ncccc23)C[C@H](CN2CCN(c3cccc(N[C@H]4CNC[C@@H]4F)n3)CC2)O1
[II] [2H]c1ccc2c(N3C[C@H](CN4CC(c5ccc(N6CC(C)(N)C6)nc5)C4)O[C@H](C)C3)ccc(C#N)c2n1
[III] C[C@@H]1CN(c2ccc(C#N)c3ncccc23)C[C@H](CN2CCN(c3ncc(C#N)c(N4CCNCC4)n3)CC2)O1
**Q:** Output the entries ranked by pIC50 from maximum down to minimum. In plain terms: list the labels in the order you were asked to.
**A:** III, II, I
(III: 8.52, II: 7.72, I: 7.48)

----------
target: hTLR9 (Homo sapiens, UniProt Q9NR96); test: HEK293-Blue-hTLR-9 cells assay (SEAP reporter, ODN2006 stimulation); format: cell-based; set-up: host or cells: HEK293 (HEK-Blue hTLR9); details: HEK293-Blue-hTLR9 cells, ODN2006, 20 hrs; read-out: HEK/hTLR9 IC50
Sequence (Q9NR96 26-1032): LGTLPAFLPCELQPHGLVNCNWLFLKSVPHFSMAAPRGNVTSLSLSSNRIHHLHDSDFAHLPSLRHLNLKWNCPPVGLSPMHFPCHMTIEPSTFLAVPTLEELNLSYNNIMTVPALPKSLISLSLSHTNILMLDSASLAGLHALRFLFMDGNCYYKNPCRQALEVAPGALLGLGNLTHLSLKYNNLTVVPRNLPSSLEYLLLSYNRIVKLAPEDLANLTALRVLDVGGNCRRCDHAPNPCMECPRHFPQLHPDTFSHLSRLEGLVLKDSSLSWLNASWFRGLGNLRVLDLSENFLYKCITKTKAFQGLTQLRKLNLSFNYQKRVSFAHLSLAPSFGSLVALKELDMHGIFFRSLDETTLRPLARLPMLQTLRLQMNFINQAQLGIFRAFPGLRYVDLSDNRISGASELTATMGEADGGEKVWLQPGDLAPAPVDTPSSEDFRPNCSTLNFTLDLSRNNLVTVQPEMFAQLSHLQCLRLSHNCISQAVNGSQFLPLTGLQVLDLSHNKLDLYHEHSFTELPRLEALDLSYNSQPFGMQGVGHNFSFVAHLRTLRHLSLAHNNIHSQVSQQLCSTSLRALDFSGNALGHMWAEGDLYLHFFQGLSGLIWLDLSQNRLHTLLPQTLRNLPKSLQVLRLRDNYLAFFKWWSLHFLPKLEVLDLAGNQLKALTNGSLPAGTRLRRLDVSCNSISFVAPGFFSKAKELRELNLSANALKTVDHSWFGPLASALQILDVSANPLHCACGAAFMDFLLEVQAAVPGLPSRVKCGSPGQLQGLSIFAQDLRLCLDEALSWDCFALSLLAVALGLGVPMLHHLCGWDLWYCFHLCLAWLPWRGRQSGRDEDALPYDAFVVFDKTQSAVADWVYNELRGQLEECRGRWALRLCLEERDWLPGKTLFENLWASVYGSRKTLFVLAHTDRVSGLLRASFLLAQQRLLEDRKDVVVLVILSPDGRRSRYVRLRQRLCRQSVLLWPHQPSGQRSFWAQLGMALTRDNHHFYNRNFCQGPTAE
pIC50: −log10 of the molar value.
Recorded Metric: pIC50

Molecule	Result
[2H]c1ccc2c(N3C[C@H](CN4CC(c5ccc(N6CC(C)(N)C6)nc5)C4)O[C@H](C)C3)ccc(C#N)c2n1	7.40
CO[C@H]1CN(c2nc(C)cc(N3CCN(C[C@H]4CN(c5ccc(C#N)c6ncccc56)C[C@@H](C)O4)CC3)n2)CCC1N (stereo in doubt)	7.27
Cc1cc(N2CCN(C[C@H]3CN(c4ccc(C#N)c5nccnc45)C[C@@H](C)O3)CC2)nc(N2CCNCC2)n1	7.46

----------
Biological target: human TLR8 (Homo sapiens, UniProt Q9NR97)
Sequence (Q9NR97 27-1041): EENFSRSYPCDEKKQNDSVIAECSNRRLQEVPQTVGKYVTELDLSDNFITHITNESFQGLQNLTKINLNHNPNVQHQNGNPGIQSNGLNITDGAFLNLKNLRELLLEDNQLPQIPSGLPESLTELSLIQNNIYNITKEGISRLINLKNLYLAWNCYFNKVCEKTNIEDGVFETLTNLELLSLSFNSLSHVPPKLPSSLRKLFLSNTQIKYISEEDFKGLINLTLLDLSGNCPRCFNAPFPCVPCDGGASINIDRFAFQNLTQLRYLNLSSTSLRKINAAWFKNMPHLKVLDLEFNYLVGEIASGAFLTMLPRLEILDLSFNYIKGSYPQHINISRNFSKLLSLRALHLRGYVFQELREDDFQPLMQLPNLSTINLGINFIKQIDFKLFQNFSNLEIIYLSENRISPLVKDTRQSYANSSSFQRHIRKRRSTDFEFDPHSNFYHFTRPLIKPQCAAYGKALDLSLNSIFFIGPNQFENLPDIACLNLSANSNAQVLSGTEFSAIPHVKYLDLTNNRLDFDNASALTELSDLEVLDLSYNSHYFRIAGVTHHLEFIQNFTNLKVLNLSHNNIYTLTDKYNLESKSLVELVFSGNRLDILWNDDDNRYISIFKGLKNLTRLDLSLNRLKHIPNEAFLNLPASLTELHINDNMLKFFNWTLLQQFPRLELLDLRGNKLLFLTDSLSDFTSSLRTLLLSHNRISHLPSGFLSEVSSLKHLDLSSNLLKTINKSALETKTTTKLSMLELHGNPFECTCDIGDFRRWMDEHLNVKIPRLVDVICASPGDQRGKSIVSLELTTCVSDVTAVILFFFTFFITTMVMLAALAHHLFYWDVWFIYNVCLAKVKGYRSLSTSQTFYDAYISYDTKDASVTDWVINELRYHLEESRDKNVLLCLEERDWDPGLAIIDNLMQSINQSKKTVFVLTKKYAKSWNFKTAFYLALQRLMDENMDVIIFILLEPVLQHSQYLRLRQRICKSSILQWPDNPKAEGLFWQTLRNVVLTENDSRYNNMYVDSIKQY
Assay: HEK293-Blue-hTLR-8 cells assay (SEAP reporter, R848 stimulation)
Conditions: HEK293-Blue-hTLR8 cells, R848, 20 hrs; read-out: HEK/hTLR8 IC50
Recorded Metric: IC50 (nM)

Some compounds with recorded IC50:
Compound	IC50 [nM]
C[C@@H]1CN(c2ccc(C#N)c3nccnc23)C[C@H](CN2CCN(c3ccnc(N4C[C@H](N)[C@@H](F)C4)n3)CC2)O1	1
[2H]c1ccc2c(N3C[C@H](CN4CCN(c5cnc(N6CC(C)(N)C6)cc5C)CC4)O[C@H](C)C3)ccc(C#N)c2n1	17
Cc1ccc(N2C[C@H](CN3CCN(c4ccnc(N5CCN[C@@H](C)C5)n4)CC3)O[C@H](C)C2)c2nccnc12	9
C[C@@H]1CN(c2ccc(C#N)c3ncccc23)C[C@H](CN2CCN(c3ccnc(N[C@H]4CNC[C@H]4F)n3)CC2)O1	11
CO[C@@H]1CN(c2nc(C)cc(N3CCN(C[C@H]4CN(c5ccc(C#N)c6ncccc56)C[C@@H](C)O4)CC3)n2)C[C@H]1N (single isomer, unassigned) [Example 69B]	2

[a] C[C@@H]1CN(c2ccc(C#N)c3ncccc23)C[C@H](CN2CCN(c3ccnc(N4C[C@@H](N)[C@@H](F)C4)n3)CC2)O1
[b] C[C@@H]1CN(c2ccc(C#N)c3ncccc23)C[C@H](CN2CCN(c3ccnc(N4C[C@H](N)[C@@H](F)C4)n3)CC2)O1
[c] C[C@@H]1CN(c2ccc(C#N)c3ncccc23)C[C@H](CN2CCN(c3cnc(N4CCNCC4)cn3)CC2)O1
**Q:** Please order the records by their reported IC50, lowest number first. In plain terms: list the labels in the order you were asked to.
**A:** b, a, c

[1] Cc1ccc(N2C[C@H](CN3CCN(c4nccc(N5CCNCC5)n4)CC3)O[C@H](C)C2)c2nccnc12
[2] Cc1cc(N2CCN(C[C@H]3CN(c4ccc(C#N)c5ncccc45)C[C@@H](C)O3)CC2)nc(N[C@@H]2CNC[C@H]2F)n1
**Q:** Of 1 and 2 , whose reported IC50 is numerically smaller? # reply format: chosen label
**A:** 2

[a] CO[C@H]1CN(c2nc(C)cc(N3CCN(C[C@H]4CN(c5ccc(C#N)c6ncccc56)C[C@@H](C)O4)CC3)n2)CC1N (relative stereo)
[b] [2H]c1ccc2c(N3C[C@H](CN4CCN(c5ccc(N[C@H]6CNC[C@H]6F)nc5)CC4)O[C@H](C)C3)ccc(C#N)c2n1
[c] [2H]c1ccc2c(N3C[C@H](CN4CCN(c5nc(C)cc(N6C[C@H](OC)[C@@H](N)C6)n5)CC4)O[C@H](C)C3)ccc(C#N)c2n1
**Q:** Please order the records by their reported IC50, lowest number first. In plain terms: list the labels in the order you were asked to.
**A:** c, a, b
(c: 1 nM, a: 3 nM, b: 11 nM)
